// reported aAPC Assay EC50 (IFNγ production) for each item listed
Target: T1, human B7-H4 on the cell surface (human, UniProt Q7Z7D3 25-282)
T1 sequence: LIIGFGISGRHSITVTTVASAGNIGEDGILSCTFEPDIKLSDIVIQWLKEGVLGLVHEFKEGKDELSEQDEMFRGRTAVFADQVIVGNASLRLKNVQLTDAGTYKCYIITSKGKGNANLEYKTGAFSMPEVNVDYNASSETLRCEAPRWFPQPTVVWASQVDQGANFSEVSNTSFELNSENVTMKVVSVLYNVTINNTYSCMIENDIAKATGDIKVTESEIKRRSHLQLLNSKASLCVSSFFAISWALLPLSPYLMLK
Test: cell-based or functional assay
measurement_type: aAPC Assay EC50 (IFNγ production)

B7-H4 antibody 20501 (antibody, human IgG1, kappa, V domains shown, human IgG1/kappa) VH: QLQLQESGPGLVKPSETLSLTCTVSGGSIKSGSHYWGWIRQPPGKGLEWIGNIYYSGSTYYNPSLKSRVTISVDTSKNQFSLKLSSVTAADTAVYYCAREGSYPNWLDPWGQGTLVTVSS VL: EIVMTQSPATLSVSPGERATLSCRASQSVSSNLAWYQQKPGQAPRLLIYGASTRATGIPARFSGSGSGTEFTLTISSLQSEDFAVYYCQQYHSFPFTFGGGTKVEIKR :: 0.79 nM
B7-H4 antibody 20506 (antibody, V domains shown, human IgG1/kappa) VH: QLQLQESGPGLVKPSETLSLTCTASGGSISHGGYYWSWIRQHPGKGLEWIGNIYYSGSTYYNPSLKSRVTMSVDTSKNQFSLKLSSVTAADTAVYYCARESSTISADFDLWGRGTLVTVSS VL: DIQMTQSPSSVSASVGDRVTITCRASQGISRWLAWYQQKPGKAPKLLIYAASSLQSGVPSRFSGSGSGTDFTLTISSLQPEDFATYYCQQAHTFPYTFGGGTKVEIKR :: 1.25 nM
B7-H4 antibody 20502.1 (antibody, human IgG1, kappa, V domains shown, human IgG1/kappa) VH: QLQLQESGPGLVKPSETLSLTCTVSGGSIKSGSYYWGWIRQPPGKGLEWIGNIYYSGSTYYNPSLKSRVTISVDTSKNQFSLKLSSVTAADTAVYYCAREGSYPNQFDPWGQGILVTVSS VL: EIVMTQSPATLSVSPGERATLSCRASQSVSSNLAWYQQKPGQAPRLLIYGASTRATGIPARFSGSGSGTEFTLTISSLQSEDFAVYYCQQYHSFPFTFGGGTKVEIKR :: 0.79 nM

Values from patent US20240043542A1
